- Assay overview: activators of Pax4 gene expression, primary screen, RT-PCR, mouse alpha TC1 cells, single point (AID 1053180);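 further: Pax4 Ct normalized to GAPDH with activation seen as lower delta delta Ct; plate controls were plate neutral control wells for no effect and Pax4 plasmid positive control for full effect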
- Test context: Pax4 mRNA qPCR, 6 days, at 10 µM, stronger effect = higher value, 100% = Pax4 plasmid added at qPCR
Out of some 9,600 compounds screened, about 20 (0.2%) were called active. What follows is part of a selection rich in actives, with near analogues and random picks from the rest.
Quantity kind: activation (%)
One number for each entry, in %.

INSERT INTO assay_data (molecule, quantity_kind, data_value) VALUES
  ('O=C(C[C@@H]1CC[C@H](NC(=O)c2ccc3c(c2)OCO3)[C@@H](CO)O1)NCc1ccc(Oc2ccccc2)cc1', 'activation', 0.006),
  ('CO[C@H]1CC[C@@H]2CCOc3c(C#N)cccc3C(=O)N(C)C[C@@H](OC)[C@@H](C)C(=O)N(C)C[C@H]1O2', 'activation', -0.0005),
  ('COc1ccc2c3c(n(C)c2c1)[C@H](CO)N(C)CC31CN(S(=O)(=O)c2cccs2)C1', 'activation', 0.001),
  ('CC(C)CC#Cc1ccc([C@H]2[C@@H](CO)N3CCCCN(C(=O)Nc4ccccc4)C[C@@H]23)cc1', 'activation', 0.0025);

Batch request: activation per item, same order as input.
1. CO[C@@H]1CC[C@@H]2CCOc3c(C#N)cccc3C(=O)N(C)CCCC(=O)N(C)C[C@H]1O2
2. CC(=O)N1[C@@H]2Cn3c(ccc(-c4cccnc4)c3=O)[C@H]1[C@@H](C(=O)NC1Cc3ccccc3C1)[C@@H]2CO
3. CCCNC(=O)N1[C@H](CO)[C@@H](c2ccccc2-c2cccc(C)c2)[C@@H]1C#N
4. Cc1ccc(S(=O)(=O)N2C[C@H]3[C@@H](c4ccccc42)[C@@H](CO)N3Cc2cccnc2)cc1

1. 0
2. 0
3. 0.0075
4. 0.002
